- Test system: MS2 coat protein
- Assay: apparent KD of MS2 coat protein; higher = weaker reporter binding
- Experimental Parameters: Eterna round: R107; input ligand: theophylline 2 mM
Classification scheme (apparent KD of MS2 coat protein): bin 0 = under 0.03 µM, bin 1 = from 0.03 µM up to 0.07 µM, bin 2 = 0.07 µM and over

Input line: Lab note: sort AGAGAUGAACAUGAGGAUCACCCAUGUAAACGAGGACCGGUACGGCCGCCACUCGUGGGUGUAAUAGAAUAAUAAGAGAAUAAUA [Turkey 1] into the matching apparent KD of MS2 coat protein band.
Output line: bin 1

Input line: One more sequence: ACAUGAGGAUCACCCAUGUACAUAAGGGAAGGAGCGCGGUGAGACGCAGGUAGGUCGCCCAUAAUAACAAACAUUAAAUUCAUGU [#25 Same State - Arginine A]
Output line: bin 0

Input line: Then this sequence: UGUAUGGACUGAAGGAGCGGGUUGAUACCAUGAGGAUCACCCAUGGAAAAGGCGAAAGCCGCCCAGGUAGGUCGCAGUCCAUACU
Output line: bin 0

Input line: Subsequent entry: UGUAUGUGAUCUGAUACCAGAGUUGAUAAUCUGAGGAUCACCCUGGUAAGGCGAAAGCCGCUCCCUUGGCAGCAGAUCGCAUACU
Output line: bin 2

Input line: Follow-up item: GACGAGUAGACGGCCGCCACUAUGCUGCGCAGCCCUAGAAACGCACAUGAGGAUCACCCAUGUCUUAGGACCGGGUCGAACUUAA [theeternabot_sameState_MS2_Trp_B_48]
Output line: bin 2

Input line: Also UAAACUACACAUGAGGAUCACCCAUGUGGCCGAGGACCGGUACGGCCGCCACUCGUGUGUUAAUAAAAGAACUGCAAGGUUCUUC [Uslausce] , if possible.
Output line: bin 2

Input line: Let us now turn to UGUAUGGACUGAAGGAGCGGGUAAUAAACUUGAGGAUCACCCAGGUAAUAGGCGAAAGCCACCCAGGUAGGUCGCAGUCCAUACU
Output line: bin 0

Input line: Moving on to the next sequence: GGAUGCCACUAUGGAUAGCACGAUGCCGAUACCAGCUAGGAAACUAGCCCUUGGCAGCGGAACAUGAGGAUCACCCAUGUAUCCU [EThA NP+V+V2 #8]
Output line: bin 1

Input line: What do you get for UUUUUUUUGGGAAGGAGCGGGAACAUGUGGAUCUCCCAUGUACAUGAGGAUCACCCAUGUACCCAGGUAGGUCGCCCAUUUUUUU [Exclusion - Arginine B] ?
Output line: bin 2

Input line: Now this one: GGAACAUGAGGAUCACCCAUGUCGAGUGGUCGAGGACCGGUACGGCCGCCACUCGACAUUGCUCAUAGGUAUAGCGUGAGAACGC [Same State - Tryptophan 1]
Output line: bin 2

Input line: Then what about the sequence UACUUGCUGACGGCCGCCACUAGAACAUGAGGAUCACCCAUGUAUUCUAGUCGUCAUGGGUGGACUAGGACCGGGUCAGCAAGAU [(Trp1)-(Ms2)-(T)'-(M)'-(Trp2)_Design8] ?
Output line: bin 1

Input line: Also GGUAUGUAUUCGGAAACGAAUGCAUACCAACGAGGACCGGUACGGCCGCCACUCGGCGGCGAUCAACAUGAGGAUCACCCAUGUA [Ex Tryptophan A 3] ?
Output line: bin 1

Input line: Same thing, different sequence: AGUCUUAAUGGAAGGAGCGCAGUCAUAACAUGAGGAUCACCCAUGUCGAGGUGAGGGUCAUUGCAGGUAGGUCGCCAUACUAGAA [Same State - Arginine B (Freestyle 1)]
Output line: bin 2

Input line: Param item: CUUACGGGAAACCGACCCAAACAACGGGAAGGAGCGCCAAACAAGGCAGGUAGGUCGCCCACAUGAGGAUCACCCAUGUGUUGGG [Exclusion Arginine A GF 26]
Output line: bin 1

Input line: UCGGGCAGAGCGGCCGCCACUGUUUGGCGUGCGGAUGAAGGAACAUGAGGAUCACCCAUGUAGAUUAGGACCGGGCUUGCGGAGA [ddrmullin] ?
Output line: bin 0

Input line: Request: ACCAACCACACCCUUCACUGUUUUCGCCGCCGAGGACCGGUACGGCCGCCACUCGUACAAAGACAUGAGGAUCACCCAUGUGCCU [theeternabot_exclusion_MS2_Trp_A_7]
Output line: bin 0

Input line: One more sequence: CGAACAUGAGGAUCACCCAUGUUAACCGAAGGAGCGGCGCAUAAGUCAGGUAGGUCGCGGUAGAUGAAAUAGAGCAGUGGUGACA [#01 Same State - Arginine A]
Output line: bin 1

Input line: Please do the same for UUAAUCUUUAUUGAAAACAAUAAAGCAGAAGGAGCGUGAUAAAACACAGGUAGGUCGCUGAAGGGAACAUGAGGAUCACCCAUGU [AstrosSSArgA#13] as well.
Output line: bin 1

Input line: Consider next the sequence CGGUCGGUCGGCCGGUGAUUAUGGGAUGAAGGAGCGUGGGAAGCUACAGGUAGGUCGCAUCCGAACCAUGAGGAUCACCCAUGGU [SSArg A #23Alt-Ms2 Mod] in the same way.
Output line: bin 1

Input line: Another sequence to check: CGCAACCAACAUGAGGAUCACCCAUGUGAAGGAGCGCCGAAUAAGGCAGGUAGGUCGCACAUGAAUAAAUCAUGAAGGAAGCGAA [XArg-A 12 NuPack]
Output line: bin 1

Input line: Ok, now GAUAACAUGAGGAUCACCCAUGUGGCGUCGCGAGGACCGGUACGGCCGCCACUCGGCAGUUCAACUCGAAUAUAGUGAUCGAAGU [theeternabot_sameState_MS2_Trp_A_16]
Output line: bin 2

Input line: For AAUAACAUGAGGAUCACCCAUGUAAGUGGGCGAGGACCGGUACGGCCGCCACUCGGAUGAUGUUGACGAAAAGUCAGCAUCAUCA [#OpenEnded 2 #GuTurnoff #Tail] then?
Output line: bin 1

Source listed as the supplement of paper PMC9170038.
